Molecular target: UniProtKB P08908
Sequence (P08908 whole entry): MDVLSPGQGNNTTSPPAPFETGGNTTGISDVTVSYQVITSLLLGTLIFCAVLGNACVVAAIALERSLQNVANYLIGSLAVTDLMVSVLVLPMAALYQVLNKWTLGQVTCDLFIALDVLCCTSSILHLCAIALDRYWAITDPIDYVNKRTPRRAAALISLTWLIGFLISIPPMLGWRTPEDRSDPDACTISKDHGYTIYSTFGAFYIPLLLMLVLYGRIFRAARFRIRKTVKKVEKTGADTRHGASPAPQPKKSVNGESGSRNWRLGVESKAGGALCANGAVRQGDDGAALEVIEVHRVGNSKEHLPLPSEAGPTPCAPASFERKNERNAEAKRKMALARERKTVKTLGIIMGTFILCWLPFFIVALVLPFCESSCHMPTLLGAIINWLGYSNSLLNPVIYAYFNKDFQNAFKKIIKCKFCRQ
Assay: Binding affinity to human 5HT1A receptor expressed in HeLa cells by scintillation proximity assay
Type: cell-based
PROPERTY NAME: pKi
Please report pKi as the negative decimal logarithm of the molar concentration, giving only the number.

structure_as_smiles=Cc1c(OCCCCN2CCN(c3cccc4ccccc34)CC2)ccc2c1C(=O)NC2 assayed_system="UniProtKB P08908" measured_number=8.49
structure_as_smiles=O=C1NCc2ccc(OCCCCN3CCN(c4cccc5ccc(F)cc45)CC3)c(F)c21 assayed_system="UniProtKB P08908" measured_number=8.34
structure_as_smiles=O=C1NCc2ccc(OCCCN3CCN(c4cccc5ccccc45)CC3)cc21 assayed_system="UniProtKB P08908" measured_number=9.27
structure_as_smiles=O=C1NCc2ccc(OCCCN3CCN(c4cccc5c4OCCC5)CC3)cc21 assayed_system="UniProtKB P08908" measured_number=10.30

Continue with the compound presented below.
Q: # get_value(readout='pKi', item= "Cc1c(OCCCN2CCN(c3cccc4ccccc34)CC2)ccc2c1C(=O)NC2" )
Ans: 9.21
